Each entry below lists one item and its recorded MIC value.
- System: ASAU001 (laboratory strain of S. aureus, ATCC29213)
- Assay notes: MIC broth microdilution, ASAU001
- Assay type: cell-based
- Setup conditions: Staphylococcus aureus, ATCC29213, read-out: MIC ASAU001

C[C@@H](N)[C@H](NC(=O)c1ccc(C#Cc2ccc(CN)cc2)cc1)C(=O)NO [Example 131-1]	> 64 µg/mL
O=C(NO)[C@H](Cc1ccccc1)NS(=O)(=O)c1ccc(C#Cc2ccc(CN3CCOCC3)cc2)cc1 [Example 62-6]	> 64 µg/mL
C[C@@H](N)[C@H](NC(=O)c1ccc(C#Cc2ccc(CN3CCC(F)CC3)cc2)cc1)C(=O)NO [Example 115-1]	> 64 µg/mL

Proceeding to the next compound to report its MIC.
# MIC of O=C(CNC1CC1)NC[C@H](NC(=O)c1ccc(/C=C/C#Cc2ccc(CO)cc2)cc1)C(=O)NO [Example 113-11] = > 64 µg/mL

The origin of these recorded values is patent US9617256B2.
